subject.of.test: human liver FBPase (Homo sapiens, UniProt P09467)
Construct: made in house; host or cells: E. coli
Sequence (P09467 2-338 limits assumed): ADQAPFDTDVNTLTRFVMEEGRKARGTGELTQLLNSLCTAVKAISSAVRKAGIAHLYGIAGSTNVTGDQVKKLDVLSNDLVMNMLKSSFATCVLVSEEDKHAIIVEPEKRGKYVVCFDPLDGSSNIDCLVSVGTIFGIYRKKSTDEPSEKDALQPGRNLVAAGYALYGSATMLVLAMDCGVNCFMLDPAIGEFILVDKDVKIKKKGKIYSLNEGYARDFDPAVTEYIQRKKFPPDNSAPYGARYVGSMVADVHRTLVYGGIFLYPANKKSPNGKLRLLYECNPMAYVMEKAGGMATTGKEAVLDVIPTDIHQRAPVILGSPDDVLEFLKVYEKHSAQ
measurement.notes: FBPase assay: inorganic phosphate release (malachite green)
Assay type: biochemical
conditions: recombinant human liver FBPase, 50 μM fructose-1,6-bisphosphate, read-out at 620 nm
Parameter pIC50: see the listing below.
Remember the convention: pIC50 equals -log10 of concentration in molar.

                                 cpd_smiles  measured_value
0  CCc1nc(NC(=O)NS(=O)(=O)c2cc(C)c(CCOC(C)=O)s2)sc1CC            6.67
1  Cc1cc(S(=O)(=O)NC(=O)Nc2nc(-c3ccccc3)c(C)s2)sc1CCO            6.55

What pIC50 value was documented for this compound, "CCc1nc(NC(=O)NS(=O)(=O)c2cc(C)c(CCOC(C)=O)s2)sc1SC" ?
6.87

What pIC50 value was documented for this compound, "COCCc1sc(S(=O)(=O)NC(=O)Nc2nc3c(C)cccc3s2)cc1C" ?
6.43

What pIC50 value was documented for this compound, "CCc1sc(NC(=O)NS(=O)(=O)c2cc(C)c(CCOC(C)=O)s2)nc1C" ?
6.83

What pIC50 value was documented for this compound, "Cc1c(S(=O)(=O)NC(=O)Nc2ncc(Br)s2)sc2ccc(F)cc12" ?
5.56

What pIC50 value was documented for this compound, "O=C(Nc1ncc(Br)s1)NS(=O)(=O)c1cc2cccc(OCc3ccccc3)c2s1" ?
6.01

What pIC50 value was documented for this compound, "COc1cccc2c(S(=O)(=O)NC(=O)Nc3ncc(Br)s3)cn(C)c12" ?
7.15

What pIC50 value was documented for this compound, "CSc1sc(NC(=O)NS(=O)(=O)c2cc(C)c(CCO)s2)nc1C" ?
7.15

What pIC50 value was documented for this compound, "CC(=O)OCCc1sc(S(=O)(=O)NC(=O)Nc2nc(-c3ccccc3)c(C)s2)cc1C" ?
6.89

What pIC50 value was documented for this compound, "O=C(Nc1ncc(Br)s1)NS(=O)(=O)c1cc2cc(Cl)ccc2s1" ?
6.95

What pIC50 value was documented for this compound, "O=C(Nc1ncc(Br)s1)NS(=O)(=O)c1cc2c(s1)CCOC2" ?
6.28

What pIC50 value was documented for this compound, "CCc1nc(NC(=O)NS(=O)(=O)c2cc(C)c(CCO)s2)sc1SC" ?
7.11

What pIC50 value was documented for this compound, "COc1ccc2nc(NC(=O)NS(=O)(=O)c3cc(C)c(CCO)s3)sc2n1" ?
6.27

----------
subject.of.test: human liver FBPase (Homo sapiens)
Sequence (P09467 2-338 limits assumed): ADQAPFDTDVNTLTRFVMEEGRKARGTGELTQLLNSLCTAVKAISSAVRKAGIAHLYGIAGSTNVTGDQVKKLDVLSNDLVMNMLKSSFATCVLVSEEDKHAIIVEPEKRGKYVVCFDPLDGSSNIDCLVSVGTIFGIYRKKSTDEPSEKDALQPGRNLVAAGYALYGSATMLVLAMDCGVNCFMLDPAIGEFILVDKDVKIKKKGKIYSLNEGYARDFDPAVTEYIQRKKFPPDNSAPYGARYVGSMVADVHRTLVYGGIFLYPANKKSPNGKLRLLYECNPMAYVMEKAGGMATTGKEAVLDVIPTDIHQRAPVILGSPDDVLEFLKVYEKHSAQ
measurement.notes: FBPase assay: inorganic phosphate release (malachite green)
conditions: recombinant human liver FBPase, 50 μM fructose-1,6-bisphosphate, read-out at 620 nm
value.kind: pIC50
Remember the convention: pIC50 equals -log10 of concentration in molar.

Worked set:
>>> print(df.to_string())
                                   molecule  measured_value
0  COCCOc1cccc2cc(S(=O)(=O)NC(=O)Nc3ncc(Br)s3)sc12 [Example 38]            6.75
1  CCc1sc(NC(=O)NS(=O)(=O)c2cc(C)c(CCO)s2)nc1C [Example 70]            6.38
2  Cn1c(S(=O)(=O)NC(=O)Nc2ncc(Br)s2)cc2ccccc21 [Example 8]            5.96
3  COCCc1sc(S(=O)(=O)NC(=O)Nc2ncc(OC)s2)cc1C [Example 97]            6.19

API: value(readout= pIC50, system= human liver FBPase (Homo sapiens), query= CCc1sc(NC(=O)NS(=O)(=O)c2cc(C)c(CCOC(C)=O)s2)nc1-c1ccccc1 [Example 80] )
6.79
